Attribute: normalised response
System: CAL-148
Test: normalised response (% of control), CellTox Green; higher = less cell death (100 = DMSO, 0 = benzethonium chloride kill control)
Conditions: incubation time: 72 h

molecule	normalised response
CCN(CC)CCOc1ccc(C(=C(Cl)c2ccccc2)c2ccccc2)cc1 [Clomifene] (10000 nM)	79.6%
CC[C@H](CC#N)OC(=O)N[C@@H](C)c1cccc(NC(=O)Nc2ccc(-c3cnco3)c(OC)c2)c1 [AVN944] (10000 nM)	67.1%
CCCc1cc(C)[nH]c(=O)c1CNC(=O)c1cc(-c2ccnc(N3CCN(C)CC3)c2)cc2c1cnn2C(C)C [GSK343] (100 nM)	101%
CN1CCN(c2nc(C3=C(c4c[nH]c5ccccc45)C(=O)NC3=O)c3ccccc3n2)CC1 [Sotrastaurin] (100 nM)	98.4%
Cn1cc(C[C@@H](N)C(=O)O)c2ccccc21 [1-methyl-D-tryptophan] (50 nM)	68.5%
O=C(c1cc(Cc2n[nH]c(=O)c3ccccc23)ccc1F)N1CCN(C(=O)C2CC2)CC1 [Olaparib] (1000 nM)	92.9%
CC[C@H](CC#N)OC(=O)N[C@@H](C)c1cccc(NC(=O)Nc2ccc(-c3cnco3)c(OC)c2)c1 [AVN944] (1000 nM)	-21.7%
Cn1nnc2c(C(N)=O)ncn2c1=O [Temozolomide] (100 nM)	100%
C[C@]12C=CC(=O)C=C1CC[C@@H]1[C@@H]2C(=O)C[C@@]2(C)[C@H]1CC[C@]2(O)C(=O)CO [Prednisone] (100 nM)	64.5%
Cc1c(C(=O)Nc2ccc(N3C[C@@H](C)O[C@@H](C)C3)nc2)cccc1-c1ccc(OC(F)(F)F)cc1 [Erismodegib] (1000 nM)	110%
CO[C@H](C(=O)[C@@H](O)[C@@H](C)O)[C@@H]1Cc2cc3cc(O[C@H]4C[C@@H](O[C@@H]5C[C@@H](O)[C@H](O)[C@@H](C)O5)[C@H](O)[C@@H](C)O4)c(C)c(O)c3c(O)c2C(=O)[C@H]1O[C@H]1C[C@@H](O[C@@H]2C[C@@H](O)[C@@H](O[C@@H]3C[C@](C)(O)[C@H](O)[C@@H](C)O3)[C@@H](C)O2)[C@H](O)[C@@H](C)O1 [Plicamycin] (10000 nM)	68.9%
Cc1cc2c(F)c(Oc3ncnn4cc(OC[C@@H](C)O)c(C)c34)ccc2[nH]1 [Brivanib] (10 nM)	103%
NC(=O)c1cccc2cn(-c3ccc([C@@H]4CCCNC4)cc3)nc12 [MK-4827] (10000 nM)	79.6%
NC(=O)c1cccc2cn(-c3ccc([C@@H]4CCCNC4)cc3)nc12 [MK-4827] (1000 nM)	80.5%
